# Procedure text: Chemical stability in pH 5.7 buffer at room temperature after 1 week
# Format: physicochemical
# Measurement conditions: read-out: Stability
Property label: remaining at 168 h (%)
Answers are plain numbers, in %.

Compound	Output unit	remaining at 168 h
COc1cccc(C(=O)O[C@@H](CNC(C)(C)C)COc2nsnc2N2CCOCC2)c1OCCO[N+](=O)[O-].O=C(O)/C=C\C(=O)O	%	72.1

Each compound below has a reported value. Please supply its remaining at 168 h.
1. CC(C)(C)NC[C@@H](COc1nsnc1N1CCOCC1)OC(=O)c1ccc(OCCO[N+](=O)[O-])cc1OCCO[N+](=O)[O-]
2. COc1cc(OCCO[N+](=O)[O-])cc(C)c1C(=O)O[C@@H](CNC(C)(C)C)COc1nsnc1N1CCOCC1.O=C(O)/C=C\C(=O)O
3. COc1cc(COC(=O)CCCCCO[N+](=O)[O-])cc(OC)c1C(=O)O[C@@H](CNC(C)(C)C)COc1nsnc1N1CCOCC1.O=C(O)/C=C\C(=O)O
4. COc1cc(COC(=O)COCCOCCO[N+](=O)[O-])c(C(=O)O[C@@H](CNC(C)(C)C)COc2nsnc2N2CCOCC2)c(OC)c1.O=C(O)/C=C\C(=O)O
5. COc1cc(OCCO[N+](=O)[O-])ccc1C(=O)O[C@@H](CNC(C)(C)C)COc1nsnc1N1CCOCC1
6. CC(C)(C)NC[C@@H](COc1nsnc1N1CCOCC1)OC(=O)c1ccccc1

Result string:
[84.2, 101, 100, 93, 96.3, 74.8]

Each compound below has a reported value. Please supply its remaining at 168 h.
1. COc1cc(COC(=O)CCCCCO[N+](=O)[O-])c(C(=O)O[C@@H](CNC(C)(C)C)COc2nsnc2N2CCOCC2)c(OC)c1.O=C(O)/C=C\C(=O)O
2. CC(C)(C)NC[C@@H](COc1nsnc1N1CCOCC1)OC(=O)c1ccccc1OCCO[N+](=O)[O-].O=C(O)/C=C\C(=O)O
3. COc1cc(COC(=O)C(C)(C)CO[N+](=O)[O-])c(C(=O)O[C@@H](CNC(C)(C)C)COc2nsnc2N2CCOCC2)c(OC)c1.O=C(O)/C=C\C(=O)O
4. COc1cccc(OCCO[N+](=O)[O-])c1C(=O)O[C@@H](CNC(C)(C)C)COc1nsnc1N1CCOCC1.O=C(O)/C=C\C(=O)O
5. COc1cc(COCCO[N+](=O)[O-])ccc1C(=O)O[C@@H](CNC(C)(C)C)COc1nsnc1N1CCOCC1
6. COc1cc(COC(=O)CCCO[N+](=O)[O-])c(C(=O)O[C@@H](CNC(C)(C)C)COc2nsnc2N2CCOCC2)c(OC)c1.O=C(O)/C=C\C(=O)O
7. COc1cc(COC(=O)CCOCC(CO[N+](=O)[O-])O[N+](=O)[O-])c(C(=O)O[C@@H](CNC(C)(C)C)COc2nsnc2N2CCOCC2)c(OC)c1.O=C(O)/C=C\C(=O)O (some centres undefined)

Result string:
[99.6, 82.5, 99.1, 99.3, 94.9, 96.5, 96.7]
